test system: MS2 coat protein; assay: apparent KD of MS2 coat protein; designed switch direction (-1 OFF switch, 1 ON switch): -1; higher = weaker reporter binding; details: input ligand: FMN 200 uM
ATTRIBUTE_MEASURED: apparent KD of MS2 coat protein (nM)
Respond numerically; units are nM and should not be typed.

>  <ORDERED_RESIDUES>
UAUGUUAGCACAGGAUAUUGUUAUUUUUUUUUUCAAGAAGGGUGUACAUGAGGAUCACCCAUGUUAUGGUUUUAUCUUUUACAA [JR_ExcNG1_Sub012] (Eterna round: R96, puzzle: Exclusion NG 1)

>  <VALUE_UNIT>
nM

>  <apparent KD of MS2 coat protein>
877

$$$$

Record request: apparent KD of MS2 coat protein value, item GUUGUUUAUGUAGGAUAUGCCUGGCGUGCCUAAGCAGAAGGACAUGAGGAUCACCCAUGUAUUGCGGUCUGCGUUCAGAUCGCU [salish99_ExNG1_r4_019] (Eterna round: R96, puzzle: Exclusion NG 1)
36.8
